Biological target: T1, MBP-hCTR.36-151-H6 produced in HEK293T cells (human, UniProt P30988-2 36-151, complex N-glycans at N73, N125, N130)
T1 sequence (looked up): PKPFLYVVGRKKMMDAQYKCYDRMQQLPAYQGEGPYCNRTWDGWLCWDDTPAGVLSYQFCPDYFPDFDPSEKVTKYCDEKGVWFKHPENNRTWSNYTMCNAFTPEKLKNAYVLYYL
Assay: AlphaScreen or HTRF
Primed or numbered codes have the meaning given here. FITC′ = fluorescein isothiocyanate label; Ahx = NCCCCCC(=O)O
Recorded endpoint: pIC50
# pIC50 is unitless: minus log10 of the molar concentration; print number only

Q) Value lookup for pIC50; key = {FITC′-Ahx}-ANFLVRLQTYPRTNVGANTP-NH2 [FITC-Ahx (aminohexanoic acid)-AC413(6-25) Y25P]
A) 7.32
